# Tested on: M19-MEL
# experiment.notes: NCI tumour cell line growth inhibition, 48 h
Calls of active or inactive are those of the source. Cut-off read from the data, not from the text of the source: active = GI50 up to about 1.1 µM and inactive = higher.
observed.property: GI50

Asked: Need GI50 of CC1(c2ccc(Cl)cc2)C2C(=O)NC(=O)C1C(=O)NC2=O (stereo not given) , thanks.
Given back: > 100 µM (inactive)

Asked: Need GI50 of CC(=O)Nc1ccc(/C=C/C(=O)c2sc(-c3cccnc3)nc2C)cc1 , thanks.
Given back: > 100 µM (inactive)

Asked: Need GI50 of CC(C)=CCCC1(C)C=Cc2c(c(C)cc3c2[nH]c2cc(O)ccc23)O1 (stereo not given) , thanks.
Given back: > 25 µM (inactive)

Asked: Need GI50 of O=C(c1ccc(O)cc1O)C1C(c2ccc(O)cc2)OC(c2ccc(O)cc2)C1C(=O)c1ccc(O)cc1O (stereo not given) , thanks.
Given back: 19.6 µM (inactive)

Asked: Need GI50 of CC(=O)NC(CCCCN(Cc1ccccc1)C(=O)N(CCCl)N=O)C(=O)NCc1ccccc1 (stereo not given) , thanks.
Given back: > 67.3 µM (inactive)

* * *

# System: MOLT-4
# experiment.notes: NCI tumour cell line growth inhibition, 48 h
Active and inactive are the calls of the source. Rule as the data show it: active = GI50 up to about 1.1 µM and inactive = higher.
observed.property: GI50

Asked: Query the reported GI50 for MOLT-4; item: Cc1cc(N(CCC#N)CCC#N)ccc1/N=N/c1cccc(C(=O)O)c1
Given back: > 100 µM (inactive)

Asked: Query the reported GI50 for MOLT-4; item: Cc1c(-c2ccccc2)[nH]c2cn[nH]c(=O)c12
Given back: 83.2 µM (inactive)

Asked: Query the reported GI50 for MOLT-4; item: O=C(CN1CCN(c2cccc(Cl)c2)CC1)N1CCc2c([nH]c3ccccc23)C1c1cccnc1 (configuration not stated)
Given back: 2.54 µM (inactive)

Asked: Query the reported GI50 for MOLT-4; item: CSc1ccc(-c2cc(-c3nc4ccccc4[nH]3)nc3[nH]c(-c4nc5ccccc5[nH]4)cc(=O)c23)cc1
Given back: > 100 µM (inactive)

Asked: Query the reported GI50 for MOLT-4; item: Cc1cn(C2CC(O)C(COC(=O)c3ccccc3)O2)c(=O)[nH]c1=O (configuration not stated)
Given back: > 100 µM (inactive)

Asked: Query the reported GI50 for MOLT-4; item: O=C(Nc1cc(Cl)ccc1Cl)c1cc2cccc(Br)c2oc1=O
Given back: > 100 µM (inactive)

Asked: Query the reported GI50 for MOLT-4; item: Cc1ccc(S(=O)(=O)N(CC(O)COc2ccccc2)c2ccccc2Cl)cc1 (configuration not stated)
Given back: 19.8 µM (inactive)

Asked: Query the reported GI50 for MOLT-4; item: CN(C)CCOc1ccc(I)cc1Cc1ccccc1
Given back: 5.21 µM (inactive)

Asked: Query the reported GI50 for MOLT-4; item: CN1CCCC(OC(=O)c2cc3cc(CCl)ccc3oc2=O)C1 (configuration not stated)
Given back: 29.6 µM (inactive)

Asked: Query the reported GI50 for MOLT-4; item: Clc1cc(Br)c2c3c(c(Br)cc(Cl)c13)C(Br)=C2Br
Given back: 19.8 µM (inactive)

Asked: Query the reported GI50 for MOLT-4; item: COc1ccc(CNc2nc3ccccc3nc2C(=O)O)cc1OC
Given back: > 100 µM (inactive)

Asked: Query the reported GI50 for MOLT-4; item: Ic1ncnc2c1ncn2C1CCCO1 (configuration not stated)
Given back: > 100 µM (inactive)

Asked: Query the reported GI50 for MOLT-4; item: [N-]=[N+]=C(C(=O)N1CCCC1=O)S(=O)(=O)c1ccccc1
Given back: 50.2 µM (inactive)

Asked: Query the reported GI50 for MOLT-4; item: COC(=O)N/N=C/c1oc(-c2cccc([N+](=O)[O-])c2)c(-c2cccc([N+](=O)[O-])c2)c1[N+](=O)[O-]
Given back: 24.2 µM (inactive)

Asked: Query the reported GI50 for MOLT-4; item: CS/C(=N\c1ccccc1)N(c1ccccc1)c1nc(=[N+](C)C)ss1.[O-][Cl+3]([O-])([O-])[O-]
Given back: 1.5 µM (inactive)

Asked: Query the reported GI50 for MOLT-4; item: ClC1=NN=C(c2c[nH]c3ccccc23)CC1NCc1ccccc1 (configuration not stated)
Given back: > 100 µM (inactive)

Asked: Query the reported GI50 for MOLT-4; item: COc1ccccc1NC(=S)Nc1cccc(C)n1
Given back: > 100 µM (inactive)

Asked: Query the reported GI50 for MOLT-4; item: CC(C)=CC(=O)C/C(=N\NC(N)=S)C(=O)Nc1ccc(Cl)cc1
Given back: > 100 µM (inactive)

Asked: Query the reported GI50 for MOLT-4; item: Nc1c(C(=O)c2ccccc2)nnc2ccccc12
Given back: 36.1 µM (inactive)

Asked: Query the reported GI50 for MOLT-4; item: CN1N=C(c2ccncc2)OC1c1ccc(C(F)(F)F)cc1 (configuration not stated)
Given back: > 100 µM (inactive)

Asked: Query the reported GI50 for MOLT-4; item: CS(=O)(=O)c1nc(-c2cc3c(c(S(C)(=O)=O)n2)CCC3)cc2c1CCCCC2
Given back: > 100 µM (inactive)

Asked: Query the reported GI50 for MOLT-4; item: CCCCCCCCCCCC(=O)OC[C@H](C[As](=O)(O)O)OC(=O)CCCCCCCCCCC
Given back: 6.14 µM (inactive)

* * *

# Test system: OVCAR-3
# experiment.notes: NCI tumour cell line growth inhibition, 48 h
The source made the active and inactive calls. Cut-off read from the data, not from the text of the source: active = GI50 up to about 1.1 µM and inactive = higher.
Outcome (select one): True (active), False (inactive)

Asked: What did the test return for CC(C)=CC(=O)OC1C2C(C)C(=O)OC2C(O)C(C)C2C=CC(=O)C21C (stereo not given) ?
Given back: False

Asked: What did the test return for COc1ccc(C2=Nn3c(nc4sc(C)c(C)c4c3=O)SC2)cc1 ?
Given back: False

Asked: What did the test return for CCCCC(C#N)(OP1(=O)OC(c2ccccc2)C(C)N1C)c1ccccc1 (stereo not given) ?
Given back: False

Asked: What did the test return for c1ccc(/C(=N\Nc2nc3ccccc3[nH]2)c2ccccn2)cc1 ?
Given back: True

Asked: What did the test return for CC1=C(\C=C/C(C)=C/C=C/C(C)=C/C=C/C=C(C)\C=C\C=C(C)/C=C/C2=C(C)CCCC2(C)C)C(C)(C)CCC1 ?
Given back: False

* * *

# System: SW-620
# experiment.notes: NCI tumour cell line growth inhibition, 48 h
Active and inactive are the calls of the source. Rule as the data show it: active = GI50 up to about 1.1 µM and inactive = higher.
Please respond with reported GI50 for every item in the list.

Asked: Need GI50 of CN(CC(=O)O)c1ncc2c(n1)-c1ccccc1SC2 , thanks.
Given back: > 100 µM (inactive)

Asked: Need GI50 of COc1cc(S(=O)(=O)Nc2ccc(-c3csc(/N=C\c4ccccc4)n3)cc2)ccc1Cl , thanks.
Given back: 33.5 µM (inactive)

Asked: Need GI50 of CC(=O)N(O)[C@@H]1CC[C@H](n2cnc3c(N)ncnc32)C1 , thanks.
Given back: > 100 µM (inactive)

Asked: Need GI50 of CN1OC(=O)N(C)C1c1ccccc1 (stereo unspecified) , thanks.
Given back: > 100 µM (inactive)

Asked: Need GI50 of Nc1c2c(nc3ccccc13)-c1ccccc1NCCC2 , thanks.
Given back: 23.4 µM (inactive)

Asked: Need GI50 of CCOC(=O)C(C)(C)Oc1ccc(/C=C/C(=O)c2ccc(Cl)cc2)cc1 , thanks.
Given back: 13.9 µM (inactive)

Asked: Need GI50 of COc1ccc(C2Oc3cc(OC)c(O)cc3[C@@H]2C)cc1 (stereo partly specified) , thanks.
Given back: 17.1 µM (inactive)

Asked: Need GI50 of O=C1CCCC(O)=C1SC1=C(O)CCCC1=O , thanks.
Given back: > 100 µM (inactive)

Asked: Need GI50 of Cc1ccc(C(=O)CC2=Nc3nnc(CCCCCCCc4nnc5n4C(=O)C(CC(=O)c4ccc(C)cc4)=N5)n3C2=O)cc1 , thanks.
Given back: > 100 µM (inactive)

Asked: Need GI50 of O=c1[nH]cnc2c1ncn2[C@H]1CO[C@@H](CO)[C@@H]1O , thanks.
Given back: > 100 µM (inactive)

Asked: Need GI50 of O=S(=O)(O)CCSSCCS(=O)(=O)O , thanks.
Given back: > 1000 µM (inactive)

* * *

Please respond with reported GI50 for every item in the list.
# Tested on: SN12C
# experiment.notes: NCI tumour cell line growth inhibition, 48 h
Activity calls are given as the source filed them. No stated cut-off is given here; in the data, active = GI50 up to about 1.1 µM and inactive = higher.

Asked: Query the reported GI50 for SN12C; item: CC(=O)OC(OC(C)=O)c1ncccc1C(=O)OC(C)C
Given back: > 100 µM (inactive)

Asked: Query the reported GI50 for SN12C; item: CCOC(=O)c1c(SCc2ccccc2)nc2c3ccccc3ccn12
Given back: > 100 µM (inactive)

Asked: Query the reported GI50 for SN12C; item: Cc1ccc(/N=N/C(=N\c2ccc(Cl)cc2)c2ccc(N(CCC#N)CCC#N)cc2)cc1
Given back: 40.9 µM (inactive)

Asked: Query the reported GI50 for SN12C; item: O=C(Nc1cc(Cl)ccc1Cl)c1cc2cccc(Br)c2oc1=O
Given back: > 100 µM (inactive)

Asked: Query the reported GI50 for SN12C; item: N#Cc1ccc(OCc2nc3cc(C(F)(F)F)ccc3nc2-c2ccccc2)cc1
Given back: > 100 µM (inactive)

Asked: Query the reported GI50 for SN12C; item: [N-]=[N+]=C(C(=O)N1CCCC1=O)S(=O)(=O)c1ccccc1
Given back: > 100 µM (inactive)

Asked: Query the reported GI50 for SN12C; item: N=C(N)NCCCC(Nc1c2ccccc2[n+]([O-])c2ccccc12)C(=O)O (stereo not drawn)
Given back: 44.1 µM (inactive)

Asked: Query the reported GI50 for SN12C; item: O=C(CN1CCN(c2cccc(Cl)c2)CC1)N1CCc2c([nH]c3ccccc23)C1c1cccnc1 (stereo not drawn)
Given back: 9.57 µM (inactive)

Asked: Query the reported GI50 for SN12C; item: COc1ccc(S(=O)(=O)N/N=C/C(=O)O)cc1
Given back: 475 µM (inactive)

Asked: Query the reported GI50 for SN12C; item: CC(C)S(=O)(=O)ON1C(=O)c2ccc(N(C)C)cc2C1=O
Given back: 16.9 µM (inactive)

Asked: Query the reported GI50 for SN12C; item: CCOC(=O)NC(C(F)(F)F)(C(F)(F)F)P(=O)(OC(C)C)OC(C)C
Given back: > 100 µM (inactive)

Asked: Query the reported GI50 for SN12C; item: Clc1cc(Br)c2c3c(c(Br)cc(Cl)c13)C(Br)=C2Br
Given back: 19.5 µM (inactive)

Asked: Query the reported GI50 for SN12C; item: CCOC(=O)C(C)(C)Oc1ccc(/C=C/C(=O)c2ccc(Cl)cc2)cc1
Given back: 19.1 µM (inactive)

Asked: Query the reported GI50 for SN12C; item: CSc1cc(N)ccc1/N=N/c1ccc(S(N)(=O)=O)cc1
Given back: 27.5 µM (inactive)

Asked: Query the reported GI50 for SN12C; item: O=C(/C=C/c1ccc(Cl)cc1)c1cccs1
Given back: 16.5 µM (inactive)

Asked: Query the reported GI50 for SN12C; item: CCN(CC)CC(=O)NC1c2ccccc2Oc2ccccc21
Given back: > 100 µM (inactive)

Asked: Query the reported GI50 for SN12C; item: O=CC1CCCc2ccccc21 (stereo not drawn)
Given back: > 100 µM (inactive)

Asked: Query the reported GI50 for SN12C; item: CCN(CC)c1nc(=O)c(C(=O)C(C)(C)C)c(C(C)(C)C)o1
Given back: > 100 µM (inactive)
